# Condition summary: basic group
Experimental readout: pKa
Output: the number by itself.

If you can, please state the reported pKa value of CC1=C(CC(C)NCC(O)c2ccc(Cl)cc2)CCC1(C)C (centres undefined) . 8.55

Thanks! And CCNN(C)CC ? 6.81

What about this compound? CN1CCC(n2nc(-c3ccccc3)c(Cc3ccccc3)c2[O-])CC1 9.13

Note, next up: COc1ccc(N)cc1CN 9.77

Now try c1ccc(CC2CCCN2)cc1 (centres undefined) . 10.3

Thanks! And CC(=O)CCN1CCOCC1 ? 6.66

Consider next the compound C=CCC(C)(CN(CC)CC)OC(=O)CCC (centres undefined) in the same way. 8.5

Now try Cc1ccn(-c2cccc[nH+]2)n1 . -3.9

Further, for O=C([O-])CSc1nc2cc3ccccc3cc2[nH]1 ? 4.68

----------
# Condition summary: basic group
Experimental readout: pKa
In your answer, state the number alone without any accompanying words.

What pKa value was documented for this molecule, Cc1cncc(C)n1 ? 2.11

Let us now turn to COC(=O)c1ccc(N(C)C)cc1 2.61

Try the molecule C1CCN(N2CCCC2)C1 7.16

Param item: CNCC(C)CNC 10.6

----------
Provide the reported pKa of each item.
# Condition summary: acidic group
Number only, please.

If you can, please state the reported pKa value of Cc1cc(C#N)cc(C)c1O . 8.27

Would you mind doing CC(=O)CC(=O)c1ccccc1 as well? 8.69

Follow-up entry: CC[NH+](CC)CC(=N\O)/C(C)=N/O 8.5

Can you check c1cncc(-c2nc3ccccc3[nH]2)c1 next? 11.2

Also O=C(O)/C=C/C(=O)c1ccccc1 ? 3.34

Another compound to look at: Nc1nc2ncncc2[nH]1 9.36

Okay, and O=C(O)CCCc1ccccc1 ? 4.78

Another: Nc1c2ccccc2[nH+]c2c(O)cccc12 7.05

What do you have for O=C(NO)c1ccncc1 ? 7.82

Now the same for O=C(O)c1cncs1 2.99

Also Fc1cccc(NC(=S)c2ccccc2)c1 , if possible. 10.3

Sc1cnc2ccccc2c1 , same question. 6.13

Request: Nc1c2[n-]cnc2nc[n+]1[O-] 13

Cool, now O=[N+]([O-])c1ccc2ccc(O)cc2c1 8.81

Another compound to check: Cc1noc(NS(=O)(=O)c2ccc(N)cc2)c1C 4.16

Next record, please: CCOC(=O)c1c(C)nc(C)c(C(=O)OCC)c1-c1cccc(NS(=O)(=O)c2ccc(N)cc2)c1 9.7

Can you check CC(=N\O)/C(CN(C)C)=N\O next? 10.6

----------
# Condition summary: acidic group
Experimental readout: pKa
# answer = number (no unit)

Look up pKa: C[NH2+]CC(=O)O 2.24

Then Cc1cccc(CCCCCCCC(=O)O)[nH+]1 ? 4.6

Continue with O=C(O)c1ccoc1 3.94

Then what about the molecule Nc1ccc(O)c2ncccc12 ? 11.2

Again, but for CCCCOc1ccc(O)cc1 10.2

Record: [O-]c1cc[nH+]cc1O 9.6

// query: CCCCN(C(=O)c1cccc(O)c1)c1ccc(/N=N/c2ccc3c(c2)OCCOCCOCCOCCOCCO3)cc1 9.54

Please do the same for C#CCO as well. 13.3

Also check N#CC(C#N)Cc1ccc(Cl)cc1 11.5

How about CC(C)([SeH])C[NH3+] ? 5.21

----------
# Condition summary: basic group
Experimental readout: pKa
Could you respond with only the numeric value?

Report pKa for O=C([O-])CC(c1ncc[nH]1)c1[nH]cc[nH+]1 please. 4.62

Another: CC(C)(C)NCCO 10.1

# repeat for CNC[C@H](O)c1cccc(O)c1 8.77

Could you do the same for CC(C)N/C=N/c1ccc(-c2cncn2C)cc1 , please? 8.83

Further, for NCCCN ? 10.6

Similarly, Cc1cccc(C)c1N ? 3.84

Would you mind doing NOCc1ccc([N+](=O)[O-])cc1 as well? 3.96

Follow-up entry: C[C@@H]1N[C@@H]1C 5.34

Same again, this time with Nc1cccc2cc3ccccc3nc12 4.4

Another molecule: Oc1cnc2ccccc2c1 4.3

Would you mind doing CCN1CCCC1C (stereo not given) as well? 10.6

Next record, please: CCN(CC)c1ccc(C)cc1 7.18

For C=C[C@]1(O)C[C@@H](C)N[C@@H]2CCCC[C@H]21 then? 9.98

Now give it for COc1cc(S(C)=O)ccc1-c1nc2cnccc2[nH]1 (stereo not given) too. 6.16

Try c1cc2[nH]cnc2cn1 next. 6.1

Can you handle CN(C)Cc1cc([N+](=O)[O-])ccc1[O-] next? 9.93

Item: Cc1c[nH+]c(C)cn1 -4.42

Moving on to NCc1ccc(Cl)cc1[N+](=O)[O-] 8.34

Also check Nc1nc2ccccc2c2ccccc12 7.31

And what about the molecule CCCP(=O)(CCC)CCC ? 4.9

Same thing, different molecule: Nc1ccc2c([N+](=O)[O-])cccc2c1 3.16

Request: CSc1nc(C)cc(=O)n1C 0.9

One more molecule: CCc1cccnc1 5.57

Same question for OCCC[C@@H]1CC[C@@H]2CCCN12 please. 11.5

For c1ccc2cnncc2c1 then? 3.47

How about CNc1cc[n+](C)c([O-])n1 ? 4.47

Repeat with C1CCC2NCCCC2C1 (stereo not given) 10.9

Next: CCN(CC)CC(C)Nc1c2ccc(Cl)cc2nc2ccc(OC)cc12 (stereo not given) 9.65

And CC(O)c1ccccc1 (stereo not given) ? -7

Now the molecule [O-]c1c(Cl)cc(Cl)c(Cl)c1CN1CCCCC1 10.3

Same lookup for NCCc1ccccc1 , please. 9.89

Please give the result for COc1ncc2[nH]cnc2n1 too. 2.44

Next: NC(=O)c1ccncc1 3.57

Now this one: CCNCC(=O)c1ccc(O)cc1 7.77

// next record Cc1cc(N)nc(Nc2ccc(Cl)cc2)n1 6.6

----------
# Condition summary: basic group
Experimental readout: pKa
# respond with the number and nothing more

If you can, please state the reported pKa value of CC(C)(C)c1ccncc1 . 5.95

Let us now turn to NCC(N)CN 9.59

Repeat for the following molecule: CN 10.8

// next record O=[N+]([O-])c1ccc(-n2nnnc2/C=C/c2ccc(Cl)cc2)cc1 -3.05

Now try CN(C)c1cccnc1 . 6.67

Subsequent entry: c1cnc2c(c1)c1c(c3cccnc32)CCCC1 5.3

Record: c1ccc(-c2cnc3c(ccc4cccnc43)c2)cc1 4.82

Follow-up item: CCN(CC)CCNc1nc(C)cc(Nc2ccc(Cl)cc2)n1 9.6

Follow-up entry: CN(C)c1ccncc1 9.7

Next molecule: c1ccc2nccnc2c1 0.64

Can you handle O=C([O-])[C@H](NCCN[C@@H](C(=O)[O-])c1ccccc1[O-])c1ccccc1[O-] next? 12.1

Now try Cc1[nH+]c2cccc(N)c2n1C . 2.35

Thanks! And COc1ccc(N(C)CO)cc1 ? 4.59

Thanks! And [O-]c1nc(C(F)(F)F)nc2nc[nH]c12 ? 5.1

Request: C[C@H]1CC[C@@H]2CCCN21 11.7

Param item: Cc1ccc2[nH]cnc2c1 5.81

# iterate: CCN(C)CCOCC[NH+](CC)CC 8.46

Lookup CNc1cc[nH+]c([O-])n1 4.55

----------
# Condition summary: acidic group
// NO strictly below 5 in pKa; YES otherwise

Check the entry N#CC(C#N)C(c1ccccc1)C(C#N)C#N : does pKa equal or exceed 5? YES

Next up: S=C(Nc1ccc(Cl)cc1)c1ccccc1 YES

Param item: O=C1NC(=O)[C@H](CSSC[C@@H]2NC(=O)NC2=O)N1 YES

[NH3+]CCCCC(=O)O ? NO

Please answer likewise for Sc1cccc[nH+]1 NO

Also NC(=S)Nc1ccc(Br)cc1 ? YES

Same lookup for O=C(Cc1ccncc1)c1ccccc1 , please. YES

# iterate: COc1cc2c(cc1OC)[C@@H]1Cc3ccc(OC)c(O)c3[C@H](C2)N1C YES

Repeat for the following compound: CC(C)=C(C(N)=O)C(=O)O NO

Can you check O=[N+]([O-])c1cccc(S(=O)O)c1 next? NO

Let us now turn to CCCCCC(=O)NO YES

Try this compound next: CC(=O)c1c(C(=O)O)cccc1[N+](=O)[O-] NO

Queued: O=C(C1=C(O)C(=O)c2ccccc2C1=O)c1ccccc1 NO

Next compound: Cc1cccc(/C=C/C(=O)O)c1 NO

Can you handle N#CC(C#N)=C(C#N)Nc1ccc(Br)cc1 next? NO

Field entry: Oc1cccc2cccc(O)c12 YES

Param item: O=C(/C(=N/O)c1ccccc1)c1ccccc1 YES

Also check O=c1[nH]cnc2[nH]ncc12 YES

Check CCC1(C2=CCCCC2)C(=O)[N-]C(=S)NC1=O too. YES

Subsequent entry: O=[N+]([O-])c1ccc2cc(O)ccc2c1 YES
